The reported numbers originate from the nanobody polyreactivity screen of Harvey et al. (2022).

experiment: yeast display, Sf9 membrane polyspecificity reagent, FACS + sequencing; frameworks hold sequencing errors
ASSAY_ENDPOINT: polyreactivity (PSR sort gate)

See these solved cases before continuing.
RESIDUE_STRING	polyreactivity (PSR sort gate)
QVQLVESGGGLFQEGGSLRLICAASGFTFSGYAMGWYRQAPGKERELVDAISSSGGSTYYADSVKGRFTISRDNAKNTVYLQMNSLKPEDTAVYYCYDRSRYYPGYSRFFYWGQGTQVTVSS	high polyreactivity
QVQLVESGAGLVQAGGSLRLSFAASGRTFRGYAMGLYRQGPGKEREWVAAISSGGSTYYADSVKGRFTISRDNAKNTVSLQMYSLKPEDTAVYYCARAVGNYRTLEFDYWGQGTQVTVSS	low polyreactivity
QVQHVESGGGLVQAGRSLRLICAASGRTFSRYALGWSRQAPGKERELVASIRSGGSTNYADSVKGRFTISRDNAKNTVYLQMNSLKPEDSAVYYCAKRGRLRNYDYWGQGTQVTVSS	high polyreactivity
QVQLVESGGGLVQAGGSLRLSCAASGITFDKNTMGWYRQEPGKVRELVAAISARGGSTYYADSVKGRFTISRDNSKNTVYLQMNSLKPEDTAVYYCAARSGYGPYRMDYWGQGTQVTVSS	high polyreactivity
QVQLVESGGGLVQAGGSLRLSCAASGRIFGTYAMGWYRQAPRKERELVAAITQSARSTYYADSVKGRFTISRDNAKNTVYLQMNSLKPEDTAVYYCAAVGYYTKRRFGYWGQGTQVTVSS	high polyreactivity
QVQLVESGGGLVQAGGSLRLSCAASGSIFHPYGMGWYRQAPGKERELVARISWSTSSTNYADSVKGRFTISRDNAKNTVYLQMNSLKPEDTAVYYCAADYYVFPGYDYWGQGTQVTVSS	high polyreactivity
QVQLVESGGGLVQAGGSLRLSCAASGRTFNGYVMGWYRQAPGKEREFVAVINWSGGNTYYADSVKGRFTISRDNAKNTVNLQMNSLKPEDTAVYYCAARRVRSYAYDYWGQGTQVTVSS	high polyreactivity
QVQLVESGGGLVQAGASLRLSCAASGRTFSENAMGWYRQAPGKERELVAAISGSGGRTYYADSVKGRFTISRDNEKNTVYLQMKSLKPEVTAVYYCAKVTRYGSTYDYWGQGTQVTVSS	high polyreactivity

Q: Given the entry QVQLVESGGGLVQAGGSLRLSCAASGFTLADNTMGWYRQAPGKERQLVATISSDGNTNYADSVKGRFTISRDNAKNTVYLQMNSLKPEDTAVYYCNAEGVFGDVRSGFYWYDYWGQGTQVTVSS , report its measured polyreactivity (PSR sort gate).
Ans: low polyreactivity

Q: What do we get for QVQLVESGGGLLRAGGSLRLICADSAFVNYVMGWYRQAPGKERELVAAISKGGGRTYYADSVKGRFTISRDNAKNTVYLQMNSLKPEVTAVYYCNADGGLPKYDYWGQGTQVTVSS ?
Ans: high polyreactivity

Q: What do we get for QVQLVESGGGLVQAGGSLRLSCAASGRTFSRNAMGWYRQAPGKERELVATISSSGVRTYYADSVKGRFTISRDNAKNTVYLQMNSLKPEDTAVYYCAAAWRYYSAASGYDYWGQGTQVTVSS ?
Ans: low polyreactivity

----------
assay: yeast display, Sf9 membrane polyspecificity reagent, FACS + sequencing; frameworks hold sequencing errors
ASSAY_ENDPOINT: polyreactivity (PSR sort gate)

RESIDUE_STRING	polyreactivity (PSR sort gate)
QVQLVESGGGLVQAGGSLRLSCAASGSIFFGNDKGWYRQAPGKERELVAGISNGGRTNYADSVKGRFTISRDNAKNTVYLQMNSLKPEDTAVYYCAKHPVYIYWSRVLVGYYSWGQGTQVTVSS	low polyreactivity
QVQLVESGVGLVQAGGSLRLSCSASGIIFDDYAMGWYRQAPGKERELVAAISRRGGSTYYADSVKGRFTISRDNAKNTVYLQMNSLKPEDTAVYYCAATTRTYSLYNYWGQGTHVTVSS	high polyreactivity
QVQLQESGGGLVQAGGSLRLSCAASGPISRRSTMGWYRQAPGKERELVTAITRGTNTNYADSVKGRFTISRDNAKNTEYLQMNSLKPVDTAVYYCAAYGVLNPSRGDAVFHRYWGQGTQVSVSS	low polyreactivity
QVQLVESGGGLVQAGASLRLSCAASGSTLSYAMGWYRQAPGKERELVAAISRSGGSTYYADSVKGRFTISRDNAKNTVYLLMNSLKPEDTAVYYCAADPYPSYANGGYYWGQGTQVTVSS	low polyreactivity

Now for a further sequence.
Q: Given the entry QVQLVESGGGLVQAGGSLRLSCAASGSIFAKNAMGWYRQAPGKERELVAAIDLNGGSTYYADSVKGRFTISRDNAKNTVYLQMNSLKPEDTAVYYCADYYGHSSVIRSSPEYDSWGQGTQVTVSS , report its measured polyreactivity (PSR sort gate).
Ans: low polyreactivity

----------
test: yeast display, Sf9 membrane polyspecificity reagent, FACS + sequencing; frameworks hold sequencing errors
ASSAY_ENDPOINT: polyreactivity (PSR sort gate)

> print(dat)
                             residue.string                  assay.endpoint     endpoint.result
1  QVQLQESGGGLVQAGGDLRLSCAASGNIFRDYIMGWYREAPGKEREFVAGIDRGANPNYADSVKGRFTISRDNAKNTVYLQMNSLKPEDTAVYYCAVHTAIVADFIYWGQGTQVTVSS  polyreactivity (PSR sort gate)  low polyreactivity
2  QVQLQESGGGLVQAGGSLRLSCAASGTISDRAGMGWYRQAPAKNAIVATIDRGTNTNYADSVKGRFTISRDNAKNTVYLQMNSLKPEDTAVYNCAAVGRYYIYLDYWGQGTQVTVSS  polyreactivity (PSR sort gate)  low polyreactivity

----------
experiment: yeast display, Sf9 membrane polyspecificity reagent, FACS + sequencing; frameworks hold sequencing errors

RESIDUE_STRING	polyreactivity (PSR sort gate)
QVQLVESGGGLVQAGGSLRLSCAASGRTFYNNAMGWDRQAPGKERELVATINNRGGPTYYADSVKGRFTISRDNAQNTVYFQMNSLKPEDTAVYYCAASGWHGYNYWGQGTQVTVSS	high polyreactivity
QVQLVESGGGIVQAGGSLRLSCAASGITFDGYAMGWYRQAPGKERELVAGISWSGARTYYADSVKGRFTISRDNAKNTVYLLMNSLKPEDTALYYCNKVSLRNHGGYDYWGQGNQVTVSS	high polyreactivity

----------
test: yeast display, Sf9 membrane polyspecificity reagent, FACS + sequencing; frameworks hold sequencing errors

RESIDUE_STRING	polyreactivity (PSR sort gate)
QVQLEESGGGLVQAGGSLRLSSAASGGIFDVSHMGWYRQAPGKERELVAAISENGGSTYYADSVKGRFTISRDNAKNTVYLLMNSLKPADTAVYYCAADYVSLSVFSYWAWYDYWGHGTQVTVSS	low polyreactivity
QVQLVESGGGLVQAGGSLRLSCAASGRIFLSYAMGVYRQAPGKERELVAGITGTGGRTYYADSVKGRFTISRDNAKNTVYLLMNSLIPEDTAVSYCAAQRRDNIDPKHYYWGQGTQVTVSS	low polyreactivity
QVQLVESGGGLVQAGGSLRLSCAASGSIFLDYAMGWYRQAPGKERELVAGITISGGSTYYADSVKGRFTISRDNAKNTVYLQMNRLKPEDTAVYYCSKVAPRSSSSQEYYYWGQGTQVTVSS	low polyreactivity

----------
assay: yeast display, Sf9 membrane polyspecificity reagent, FACS + sequencing; frameworks hold sequencing errors
ASSAY_ENDPOINT: polyreactivity (PSR sort gate)

See these solved cases before continuing.
RESIDUE_STRING	polyreactivity (PSR sort gate)
QVQLVESGGGLDQAGGSLRLSCAASGSIFAYYVMGWYRQAKGKERELVAAITSVGSTNYADSVKGRFTISRDNAKNTVYLQMNSLKPEESAVFYCAADQYQARYYYWGQGTQVTVSS	low polyreactivity
QVHLVESGGGLVQAGGSLRLSCAASGSIFVAYAMGWYRQAPGKERELVAAISSSGGTTYYADSVKGRFTISRDNAMNTVYLQMNSLKPEDTAVYYCAARDYKFYYWGQGSQVTVSS	high polyreactivity
QVQLVESGGGLVQAGGSLRLSCAASGFTFLYNAMGWYRQAPGKERELVASINSGGSTNYADSVKGRFTISRDKSKNTVYLQMNRLKPEDTAVYYCNAKRHVRKGDYGGQGTQVTVSS	low polyreactivity
QVQLVESGGGLVQAGGSLRLSSAASGSTFAFYDMGWYRQAPGKERELVAGISSSGSTYYADSVKGRFTISRDNAKNTVYLQMNSLKPEDTAVYYCAAVLSVRVYGYDYWGQGTQVTVSS	low polyreactivity
QVHLVDSGGGLVQAGGSLRLSCSASGLIFSGYAMRWYRQAPGKERELVAAITRRGSRTYYADSVTGRFTISRDKAKNTVYLQMNSLKPEDTAVYYCAADRFQGRDDYWGQGTQVTVSS	high polyreactivity

Q: Given the entry QVQLVESGGGLVQAGGSLRLSSAASGRIFDGNAMGGYRQAPGTERELVATINRGARTNYADSVKGRFTISRDNAKNTVYLQMNSLKPEDTAVYYCATSYPGYAYNQAWYPYGYWGQGTQVTVSS , report its measured polyreactivity (PSR sort gate).
Ans: low polyreactivity

Q: What do we get for QDQLVESVGGIVQAGGSLRLRCAASGFIYSRNAIGWYSEAPGKDREFVARIRWSVGSTYYADSVKGRFTISRENAKNTVYLMMTSLKPEVTAVYSCAADYYKRYKYLYDYWGQGTQVTVSS ?
Ans: high polyreactivity

Q: What do we get for QVQLVESGGGVVQAGGSLRLSCAASGSTAIYYTMGWYRQAPGKERELVAYADSVKGRFTISRDNAKTTVYLQMNSLKPEDTAVYSCAAPRTYYSELTSPYDYWGQGTQVTVSS ?
Ans: low polyreactivity

Q: What do we get for QVQLVESGGRLVQAGGSLRLSCAASGSIFWYNSMGWYRQAPGKERELVAAISRRGGTTYADSVKGRFSISRDNAKYTVYLQLNSLKPEDTAVSYCGTTYTSRYYPYDYWGQGTQVTVSS ?
Ans: high polyreactivity

Q: What do we get for QVQLVESGGGLVQAGGSLRLSCAASGRIFSVYAMGWYRQAPGKERELVAGITSSGGSTYYADSVKGRFTISRDNAKNTVYLQMNSLKPEDTAVYYCNAYSQYWLGNNYWGQGTQVTVSS ?
Ans: high polyreactivity

Q: What do we get for QGQLVESGGGLVQAGGSLRLSCAASGYIFLTNAMGWSREAPGKERVLVAAISWRGGRTYYADSVKGRFTISRDNAKNTVYLQMNSLKPEDTAVYYCNAVCEYYGKSDYWGQGTQVTVSS ?
Ans: low polyreactivity
